log10 IC50 values, listed per item
- TARGET: human orexin-2 receptor (Homo sapiens)
- Sequence (O43614 whole entry): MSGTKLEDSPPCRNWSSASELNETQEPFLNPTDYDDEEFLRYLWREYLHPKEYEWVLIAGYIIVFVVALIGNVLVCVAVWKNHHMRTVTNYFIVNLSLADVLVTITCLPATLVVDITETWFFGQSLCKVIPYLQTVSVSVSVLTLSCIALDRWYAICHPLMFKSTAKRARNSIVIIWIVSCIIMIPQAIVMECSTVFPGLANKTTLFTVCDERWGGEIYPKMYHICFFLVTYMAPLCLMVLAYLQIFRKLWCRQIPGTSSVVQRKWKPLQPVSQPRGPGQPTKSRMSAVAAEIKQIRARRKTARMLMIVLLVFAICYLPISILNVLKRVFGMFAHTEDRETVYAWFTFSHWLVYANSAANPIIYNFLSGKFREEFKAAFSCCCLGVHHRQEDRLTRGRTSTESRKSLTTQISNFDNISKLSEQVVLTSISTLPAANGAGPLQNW
- TEST NAME: OX2R FLIPR Ca flux assay (CHO cells)
- CONDITION NOTES: CHO cells expressing human orexin-2 receptor; agonist 70 pM Ala-6,12 orexin-A
- Description: The utility of the compounds in accordance with the present invention as orexin receptor OX1R and/or OX2R antagonists may be readily determined without undue experimentation by methodology well known in the art, including the “FLIPR Ca^+ Flux Assay” (Okumura et al., Biochem. Biophys. Res. Comm. 280:976-981, 2001). In a typical experiment the OX1 and OX2 receptor antagonistic activity of the compounds of the present invention was determined in accordance with the following experimental method. […]
Form field - Quantity: IC50; Unit: nM; Scale: log10

Below, 8 compounds whose answers are already recorded.
{"COMPOUND": "Cc1oc(N2CCCN(C(=O)c3ccccc3OC(F)(F)F)CC2)nc1C(C)(C)O [Example 15]", "log10 IC50": 1.32}
{"COMPOUND": "Cc1cc(C)nc(N2CCCN(C(=O)c3cccnc3OCC(F)(F)F)CC2)n1 [Example 1]", "log10 IC50": 1.26}
{"COMPOUND": "CCOc1ncccc1C(=O)N1CCCN(c2nc(C(C)(C)O)c(C)o2)CC1 [Example 21]", "log10 IC50": 1.53}
{"COMPOUND": "Cc1oc(N2CCCN(C(=O)c3ccccc3-n3cccn3)CC2)nc1C(C)(C)O [Example 20]", "log10 IC50": 1.54}
{"COMPOUND": "CC(C)(O)c1csc(N2CCCN(C(=O)c3cccnc3OCC(F)F)CC2)n1 [Example 22]", "log10 IC50": 1.95}
{"COMPOUND": "Cc1cc(C)nc(N2CCCN(C(=O)c3cccnc3OCC(F)F)CC2)n1 [Example 6]", "log10 IC50": 1.30}
{"COMPOUND": "CC(C)(O)c1csc(N2CCCN(C(=O)c3ccccc3C3CC3)CC2)n1 [Example 25]", "log10 IC50": 2.03}
{"COMPOUND": "Cc1cc(C)nc(N2CCCN(C(=O)c3ccccc3OC(F)(F)F)CC2)n1 [Example 10]", "log10 IC50": 1.56}

For Cc1cc(C)nc(N2CCCN(C(=O)c3ccc(F)cc3-n3nccn3)CC2)n1 [Example 3] , write its log10 IC50.
1.54

For Cc1oc(N2CCCN(C(=O)c3cccnc3OCC(F)(F)F)CC2)nc1C(C)(C)O [Example 17] , write its log10 IC50.
1.23
